- tested on: Signal transducer and activator of transcription 3 (Homo sapiens)
- method summary: Inhibition of Stat3 phosphorylation in human MDA-MB-231 cells by Western blotting analysis in normoxia condition
readout type: IC50
The reply should consist of the numeric value with the unit placed after it.

Name the recorded IC50 of the molecule listed here: CN(C)CCCN1C(=O)c2ccc3c4ccc5c6c(ccc(c7ccc(c2c37)C1=O)c64)C(=O)N(CCCN(C)C)C5=O
4.5 µM

====

- tested on: Signal transducer and activator of transcription 3 (Homo sapiens)
- method summary: Inhibition of Stat3 phosphorylation in human OVCAR3 cells by Western blotting analysis in hypoxia condition
readout type: pIC50
# pIC50 is unitless: minus log10 of the molar concentration; print number only

Name the recorded pIC50 of the compound listed here: CN(C)CCCN1C(=O)c2ccc3c4ccc5c6c(ccc(c7ccc(c2c37)C1=O)c64)C(=O)N(CCCN(C)C)C5=O
5.35

====

- tested on: Hypoxia-inducible factor 1-alpha (Homo sapiens, UniProt Q16665)
- Sequence (Q16665 whole entry): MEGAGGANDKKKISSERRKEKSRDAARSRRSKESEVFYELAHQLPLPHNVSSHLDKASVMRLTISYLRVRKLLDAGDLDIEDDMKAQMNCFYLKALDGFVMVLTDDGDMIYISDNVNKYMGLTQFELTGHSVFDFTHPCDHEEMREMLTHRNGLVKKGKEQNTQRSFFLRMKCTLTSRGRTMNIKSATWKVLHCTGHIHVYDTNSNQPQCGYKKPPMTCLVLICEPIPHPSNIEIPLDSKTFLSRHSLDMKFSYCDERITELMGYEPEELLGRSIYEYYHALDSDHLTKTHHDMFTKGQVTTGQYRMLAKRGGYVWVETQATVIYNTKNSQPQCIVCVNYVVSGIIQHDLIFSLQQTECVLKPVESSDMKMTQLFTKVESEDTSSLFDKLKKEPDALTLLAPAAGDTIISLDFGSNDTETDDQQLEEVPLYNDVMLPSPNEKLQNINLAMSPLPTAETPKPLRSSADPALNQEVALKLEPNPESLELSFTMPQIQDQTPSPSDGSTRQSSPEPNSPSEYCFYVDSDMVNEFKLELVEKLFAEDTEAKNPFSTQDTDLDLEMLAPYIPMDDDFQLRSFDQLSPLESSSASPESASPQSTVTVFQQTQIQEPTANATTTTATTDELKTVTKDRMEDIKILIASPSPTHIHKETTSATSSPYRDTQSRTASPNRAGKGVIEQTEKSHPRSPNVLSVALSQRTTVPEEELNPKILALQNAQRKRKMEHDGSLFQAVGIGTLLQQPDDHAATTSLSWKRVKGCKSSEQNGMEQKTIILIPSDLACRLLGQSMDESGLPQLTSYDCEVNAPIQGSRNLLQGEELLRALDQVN
- method summary: Inhibition of HIF-1 alpha in human MDA-MB-231 cells by Western blotting analysis in hypoxia condition
readout type: IC50 (nM)
Just the number in nM, nothing appended.

Name the recorded IC50 of the compound listed here: CN(C)CCCN1C(=O)c2ccc3c4ccc5c6c(ccc(c7ccc(c2c37)C1=O)c64)C(=O)N(CCCN(C)C)C5=O
3000

====

- tested on: UniProt P40763
- method summary: Inhibition of Stat3 phosphorylation in human MDA-MB-468 cells by Western blotting analysis in normoxia condition
readout type: IC50 (µM)
Just the number in µM, nothing appended.

Name the recorded IC50 of the compound listed here: CN(C)CCCN1C(=O)c2ccc3c4ccc5c6c(ccc(c7ccc(c2c37)C1=O)c64)C(=O)N(CCCN(C)C)C5=O
4.5

====

- tested on: Signal transducer and activator of transcription 3 (Homo sapiens, UniProt P40763)
- Sequence (P40763 whole entry): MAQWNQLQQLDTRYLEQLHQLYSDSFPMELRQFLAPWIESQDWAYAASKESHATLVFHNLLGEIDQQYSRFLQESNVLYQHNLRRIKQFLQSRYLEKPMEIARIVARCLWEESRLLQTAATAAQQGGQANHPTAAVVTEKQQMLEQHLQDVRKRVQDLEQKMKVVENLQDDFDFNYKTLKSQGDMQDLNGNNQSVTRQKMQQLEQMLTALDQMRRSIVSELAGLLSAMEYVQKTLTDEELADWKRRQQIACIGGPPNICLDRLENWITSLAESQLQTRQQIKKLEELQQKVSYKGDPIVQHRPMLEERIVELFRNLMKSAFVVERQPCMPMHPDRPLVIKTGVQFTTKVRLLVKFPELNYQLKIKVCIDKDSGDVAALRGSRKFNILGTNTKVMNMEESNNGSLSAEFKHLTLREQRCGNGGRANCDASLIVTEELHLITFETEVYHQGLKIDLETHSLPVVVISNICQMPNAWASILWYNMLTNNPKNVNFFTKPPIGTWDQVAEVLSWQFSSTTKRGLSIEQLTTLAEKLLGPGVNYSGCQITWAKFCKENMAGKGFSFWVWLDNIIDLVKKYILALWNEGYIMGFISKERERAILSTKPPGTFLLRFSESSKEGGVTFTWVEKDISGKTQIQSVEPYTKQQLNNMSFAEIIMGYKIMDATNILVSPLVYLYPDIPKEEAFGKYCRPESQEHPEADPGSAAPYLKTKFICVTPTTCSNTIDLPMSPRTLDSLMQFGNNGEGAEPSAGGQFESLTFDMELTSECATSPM
- method summary: Inhibition of Stat3 phosphorylation in human PANC1 cells by Western blotting analysis in hypoxia condition
readout type: pIC50
# pIC50 is unitless: minus log10 of the molar concentration; print number only

Name the recorded pIC50 of the compound listed here: CN(C)CCCN1C(=O)c2ccc3c4ccc5c6c(ccc(c7ccc(c2c37)C1=O)c64)C(=O)N(CCCN(C)C)C5=O
5.35
